Please respond with reported pIC50 for every item in the list.
target-of-assay: TYK2 (Homo sapiens, UniProt P29597)
Construct: endogenous in cells; host or cells: Molt4 (ATCC CRL-1582) and Ramos (ATCC CRL-1596), mixed lysate 1:2
Sequence (P29597 whole entry): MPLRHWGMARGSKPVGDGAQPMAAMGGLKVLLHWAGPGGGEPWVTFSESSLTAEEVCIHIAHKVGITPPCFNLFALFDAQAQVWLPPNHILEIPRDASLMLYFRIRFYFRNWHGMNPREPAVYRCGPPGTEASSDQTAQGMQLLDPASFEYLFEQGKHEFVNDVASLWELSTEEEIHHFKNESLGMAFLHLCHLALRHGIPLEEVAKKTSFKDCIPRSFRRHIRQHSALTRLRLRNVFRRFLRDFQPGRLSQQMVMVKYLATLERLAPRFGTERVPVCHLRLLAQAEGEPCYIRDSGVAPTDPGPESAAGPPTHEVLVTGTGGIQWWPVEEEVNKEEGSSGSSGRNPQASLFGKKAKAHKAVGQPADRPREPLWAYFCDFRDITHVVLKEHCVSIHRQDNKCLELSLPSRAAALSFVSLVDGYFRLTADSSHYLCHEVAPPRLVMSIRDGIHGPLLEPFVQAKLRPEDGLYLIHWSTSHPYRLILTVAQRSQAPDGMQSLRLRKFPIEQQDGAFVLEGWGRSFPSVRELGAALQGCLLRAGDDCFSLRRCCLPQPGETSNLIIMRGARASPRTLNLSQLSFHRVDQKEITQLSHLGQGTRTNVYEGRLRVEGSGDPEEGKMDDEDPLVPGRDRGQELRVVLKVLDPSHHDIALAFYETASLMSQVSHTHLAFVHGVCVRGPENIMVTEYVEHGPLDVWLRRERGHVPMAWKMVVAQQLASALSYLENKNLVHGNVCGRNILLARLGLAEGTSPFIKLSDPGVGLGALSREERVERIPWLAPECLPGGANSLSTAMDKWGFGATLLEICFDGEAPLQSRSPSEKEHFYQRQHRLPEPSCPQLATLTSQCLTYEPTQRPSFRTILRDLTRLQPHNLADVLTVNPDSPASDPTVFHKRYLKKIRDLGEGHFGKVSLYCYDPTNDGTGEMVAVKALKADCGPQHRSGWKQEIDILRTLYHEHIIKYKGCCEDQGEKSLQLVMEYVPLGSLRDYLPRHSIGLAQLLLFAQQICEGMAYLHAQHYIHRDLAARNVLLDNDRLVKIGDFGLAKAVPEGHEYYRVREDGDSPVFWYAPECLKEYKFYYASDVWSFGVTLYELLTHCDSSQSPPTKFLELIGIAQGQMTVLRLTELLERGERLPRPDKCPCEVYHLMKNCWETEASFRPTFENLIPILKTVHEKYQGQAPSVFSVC
experiment-notes: Kinobeads assay, TYK2 (competition binding in mixed Molt4/Ramos cell lysate, dot blot detection)
condition-parameters: Kinobeads assay, Molt4/Ramos lysate; read-out: TYK2 Band (Kinobeads assay potency, IC50)
pIC50: −log10 of the molar value.

Please review the following examples before continuing.
> print(dat)
                                 cpd.smiles    meas.value
1  Cc1cnc(Nc2cnn(CC(=O)N[C@H](C)CO)c2)nc1NCc1c(F)cc(F)cc1F        ≥ 8.00
2  Cc1scnc1Cn1cc(Nc2ncc(Cl)c(NCc3c(F)cccc3F)n2)cn1  6.00 to 7.00
3  O=C(Cn1cc(Nc2ncc(Cl)c(NCc3cccc(F)c3F)n2)cn1)N1CCOCC1  7.00 to 8.00

Hi team, please reply with pIC50 for each item in this list.
1. COc1ccc(S(C)(=O)=O)cc1CNc1nc(Nc2cnn(CC(F)F)c2)ncc1C
2. Cc1ccc(F)c(CNc2nc(Nc3cnn(CC(=O)N(C)C)c3)ncc2Cl)c1F

1. 7.00 to 8.00
2. 7.00 to 8.00
